Each item that follows carries a reported apparent KD of MS2 coat protein.
System: MS2 coat protein
Test: apparent KD of MS2 coat protein; higher = weaker reporter binding
Conditions: Eterna round: R107; input ligand: theophylline 2 mM
OBSERVATION TYPE: apparent KD of MS2 coat protein

>  <POLYMER SEQUENCE>
AGUAGCUGCCGAAGGAGCGCCGUGUUCCUACAUGAGGAUCACCCAUGUAGCGUUGGGUUACGGCAGGUAGGUCGCGGCGGAUAGG [Same State - Arginine B / B]

>  <RESULT>
73.8 nM

$$$$
>  <POLYMER SEQUENCE>
AGCCACUCGAGUGAUCCUCACGAGUGGCUACGAGGACCGGUACGGCCGCCACUCGAAUUAACAUGAGGAUCACCCAUGUAAUAAU [Brourdmod03]

>  <RESULT>
270 nM

$$$$
>  <POLYMER SEQUENCE>
GCAUCCUAGUCGGCCGCCACUGCAUGUAGUUUUGCUACAUGGAAACAUGAGGAUCACCCAUGUAGCAGGACCGGGACUAGGAUGC [(Trp1)-(TM)''-(TM)'-(Ms2)-(Trp2)_Design7]

>  <RESULT>
36 nM

$$$$
>  <POLYMER SEQUENCE>
UCCUGCAGAGCGGCCGCCACUGUAUUGCGUGAGGAUGACCCAACAUGAGGAUCACCCAUGUUGUUUAGGACCGGGCUUGCCACGA [opmullin%]

>  <RESULT>
15 nM

$$$$
>  <POLYMER SEQUENCE>
AACAUGAGGAUCACCCAUGUCCCUCCCUCCCGAGGACCGGUACGGCCGCCACUCGCCCUCCCUCCCUAAGAAAGAAAGAAGAAGA [Same State - Trypopjan A]

>  <RESULT>
38.5 nM

$$$$
>  <POLYMER SEQUENCE>
ACACAUGAGGAUCACCCAUGUGCGCUGGAAGGAGCGCAGAAUCAUGCAGGUAGGUCGCCAGUGCCCAUUACUAGAGGGAUAAGAG [Onriri]

>  <RESULT>
102 nM

$$$$
>  <POLYMER SEQUENCE>
UCGCCCGGGUCGGCCGCCACUGAGGUGAUGUGACAUGAGGAUCACCCAUGUUGUCAUGUGGCACAUAGGACCGGGACCCGGGCGA [Exclusion - Tryptophan B Attempt #3 (HarryS)]

>  <RESULT>
16.8 nM

$$$$
>  <POLYMER SEQUENCE>
ACAUGAGACAUGGAUACCAGCGACAUGAGGAUCACCCAUGUAUGAGGAUCACCCAUGUUAUGCCCUUGGCAGCCACAAACAUGAG [.PLMULLINP]

>  <RESULT>
147 nM

$$$$
>  <POLYMER SEQUENCE>
AAUUCCUCACAUGAGGAUCACCCAUGUGAAGGAGCGCGGAAUAACGCAGGUAGGUCGCACAUGGAAACCGCUGCGAAAGCAGCAA [MAT - Exclusion Arginine A - Mod of Eli - D26]

>  <RESULT>
18.1 nM

$$$$
>  <POLYMER SEQUENCE>
GGAUAGGACACGGCCGCCACUACCUAGGAUACUAGCAACAUUUGGGUACGUGAGGAUCACCCACGUAGGACCGGGUGUCCUAUCG

>  <RESULT>
14.5 nM

$$$$
>  <POLYMER SEQUENCE>
UGUGCAUGAGUUGUAAAAGCUCAUGGGCAUCGAGGACCGGUACGGCCGCCACUCGGCUGUACAUGAGGAUCACCCAUGUCAGGGU [#1 Same State - Tryptophan A Attempt #22 (HarryS)]

>  <RESULT>
1100 nM

$$$$
